assay: Selectivity ratio of IC50 for cytotoxicity against human MRC5 cells to IC50 for Trypanocidal activity against Trypanosoma cruzi Tulahuen CL2 strain; format: toxicity, cell-based; conditions: read-out: Ratio IC50
measureName: selectivity ratio

I have this molecule here, `CCOc1cccc2sc(N(Cc3cccnc3)C(=O)C3CCCCC3)nc12` , and I need its recorded selectivity ratio.
> 200

====

test system: Trypanosoma cruzi; assay: Trypanocidal activity against Trypanosoma cruzi Y strain epimastigotes measured after 72 hrs; assay type: functional, organism-based
measureName: pIC50
Field pIC50 (float): negative decimal logarithm of the concentration in molar.

I have this molecule here, `CC(C)=CCC/C(C)=C/COc1ccc(CCN(C)C(=O)/C=C/S(C)(=O)=O)cc1` , and I need its recorded pIC50.
5.91
